- System: P. falciparum 3D7 parasites
- assay comment: P. falciparum growth inhibition assay, 1-cycle (72 h treatment), SYBR DNA staining (library screen at 2 μg/mL and dose-response)
- Assay type: cell-based, Plasmodium falciparum
- test conditions: Plasmodium falciparum, 3D7; P. falciparum, 72 h, screen at 2 μg/mL, replicate 2; read-out: Pf_72h_%Growth_Rep2
Measured activity at 2 µg/mL, listed per entry for reference.

compound	target under test	activity at 2 µg/mL, %
COc1c(C[C@@H](C)OC(=O)Oc2ccc(O)cc2)c2c3c(C[C@@H](C)OC(=O)c4ccccc4)c(OC)c(=O)c4c(O)cc(OC)c(c5c(OC)cc(O)c(c1=O)c52)c43 [Calphostin C]	P. falciparum 3D7 parasites	9.2
COC(=O)[C@]1(Cc2ccc3c(c2)C[C@H](O)C(C)(C)O3)OC(=O)C(O)=C1c1ccc(O)cc1 [Butyrolactone V]	P. falciparum 3D7 parasites	90.6
O=c1[nH]c2ccccc2c(-c2ccccc2)c1O [Viridicatin]	P. falciparum 3D7 parasites	125
COC(=O)/C(=C1/OC(=O)C(c2ccccc2)=C1O)c1ccccc1 [Vulpinic acid]	P. falciparum 3D7 parasites	129
O=C(O)/C=C/c1ccccc1 [Cinnamic acid]	P. falciparum 3D7 parasites	87.8
Nc1ncnc2c1ncn2[C@@H]1O[C@H](CO)C[C@H]1O [Cordycepin]	P. falciparum 3D7 parasites	11.8
CC(=O)Nc1c2sscc-2n(C)c1=O [Thiolutin]	P. falciparum 3D7 parasites	0.05
CCCCCCCCCCC[C@@H](C[C@@H]1OC(=O)[C@H]1CCCCCC)OC(=O)[C@H](CC(C)C)NC=O [Tetrahydrolipstatin]	P. falciparum 3D7 parasites	88.8
CC(C)[C@@H]1NC(=O)[C@H](C)OC(=O)[C@@H](C(C)C)NC(=O)[C@@H](C(C)C)OC(=O)[C@H](C(C)C)NC(=O)[C@H](C)OC(=O)[C@@H](C(C)C)NC(=O)[C@@H](C(C)C)OC(=O)[C@H](C(C)C)NC(=O)[C@H](C)OC(=O)[C@@H](C(C)C)NC(=O)[C@@H](C(C)C)OC1=O [Valinomycin]	P. falciparum 3D7 parasites	123
CC1CCCCCC(=O)c2c(O)cc(O)cc2CC(=O)O1 (centres unmarked) [Curvularin]	P. falciparum 3D7 parasites	47.8
CC1(C)C=Cc2cc3ccc(=O)oc3cc2O1 [Xanthyletin]	P. falciparum 3D7 parasites	22.4
NC(=O)C=Cc1ccccc1 [Cinnamamide]	P. falciparum 3D7 parasites	81.9
C[C@H]1CCCC(=O)CCC/C=C/c2cc(O)cc(O)c2C(=O)O1 [Zearalenone]	P. falciparum 3D7 parasites	99.7
CO[C@H]1C[C@@H]2CC[C@@H](C)[C@@](O)(O2)C(=O)C(=O)N2CCCC[C@H]2C(=O)O[C@H]([C@H](C)C[C@@H]2CC[C@@H](OC(=O)C(C)(CO)CO)[C@H](OC)C2)CC(=O)[C@H](C)/C=C(\C)[C@@H](O)[C@@H](OC)C(=O)[C@H](C)C[C@H](C)/C=C/C=C/C=C/1C [Temsirolimus]	P. falciparum 3D7 parasites	47.4

====

- Test system: P. falciparum 3D7 parasites
- assay comment: P. falciparum growth inhibition assay, 1-cycle (72 h treatment), SYBR DNA staining (library screen at 2 μg/mL and dose-response)
- Type: cell-based, Plasmodium falciparum
- test conditions: P. falciparum 3D7, 72 h, library screen at 2 μg/mL, % growth, replicate 1
Quick rule for you: Pf_72h_%Growth_Rep1 at 70% or higher means Met, lower means Not met.

compound	class label
CN1CCC2(c3cccc4c3NC3N(C)CCC43C34CCN(C)C3Nc3ccccc34)c3ccccc3NC12 (stereo not drawn)	Not met
COC1=CC(=O)C[C@@H](C)[C@]12Oc1c(Cl)c(OC)cc(OC)c1C2=O	Met
COc1cc(O)c2c(c1)C=CCC(O)C(O)C(=O)C=CCC(C)OC2=O (stereo not drawn)	Met
O=c1cc2ccocc-2o1	Met
COc1c(O)c(C)c(C)c(O)c1OC	Not met
COc1ccc(C2CC(=O)c3c(O)cc(OC4OC(COC5OC(C)C(O)C(O)C5O)C(O)C(O)C4O)cc3O2)cc1O (stereo not drawn)	Met
COc1ccc2c(c1OC)C(=O)OC2C1c2cc3c(cc2CCN1C)OCO3 (stereo not drawn)	Met
COC1C(O)CC(=O)OC(C)CC=CC=CC(O)C(C)CC(CC=O)C1OC1OC(C)C(OC2CC(C)(O)C(OC(=O)CC(C)C)C(C)O2)C(N(C)C)C1O (stereo not drawn)	Not met
CCC(C)C1OC2(CCC1C)CC1CC(CC=C(C)C(OC3CC(OC)C(OC4CC(OC)C(O)C(C)O4)C(C)O3)C(C)C=CC=C3COC4C(O)C(C)=CC(C(=O)O1)C34O)O2 (stereo not drawn)	Met
COc1cc2c(oc(=O)c3cc(C)cc(OC)c32)c2c([C@H]3O[C@@H]([C@@H](C)O)[C@H](O)[C@H]3O)ccc(O)c12	Met
Cc1c2ccocc-2oc1=O	Met
CC1=C[C@H](O/C=C2/C(=O)O[C@@H]3c4ccccc4C[C@H]23)OC1=O	Met
Oc1cccc2nc3ccccc3nc12	Met
COC(=O)C1(O)CC2OC1(C)n1c3ccccc3c3c4c(c5c6ccccc6n2c5c31)CNC4=O (stereo not drawn)	Not met
CCCC(=O)OC1C(C)OC(OC2C(C)OC(OC3C(CC=O)CC(C)C(O)C=CC=CCC(C)OC(=O)CC(O)C3OC)C(O)C2N(C)C)CC1(C)O (stereo not drawn)	Not met
Cc1cc(O)cc(=O)o1	Met
CCCCC(C)C=C(C)C=C(C)C(=O)NC1=CC(O)(C=CC=CC=CC(=O)NC2=C(O)CCC2=O)C2OC2C1=O (stereo not drawn)	Met
CNC1=NC(=O)C(C(C)c2c[nH]c3ccccc23)O1 (stereo not drawn)	Not met
O=c1cc(CO)occ1O	Met
COC(=O)C1=COC(C)C2CN3CCc4c([nH]c5cc(OC)c(OC)cc45)C3CC12 (stereo not drawn)	Not met

====

- Test system: T. gondii RH strain (RH-Tub-eYFP) tachyzoites
- assay comment: microbe, parasite or virus in culture
- Assay type: cell-based, Toxoplasma gondii
- test conditions: T. gondii RH, 72 h, library screen at 2 μg/mL, % growth, replicate 2
Please respond with Yes when measured Tg_72h_%Growth_Rep2 is strictly beneath 90%, and with No in all other cases.

compound	class label
CCCCCC(=O)NC1CCOC1=O (centres unmarked)	No
CCCCC(C)C=C(C)C=C(C)C(=O)NC1=CC(O)(C=CC=CC=CC(=O)NC2=C(O)CCC2=O)C2OC2C1=O (centres unmarked)	Yes
O=C1CCCC2C3CC(CN12)C1CCCCN1C3 (centres unmarked)	No
CCC(C)C1OC2(CCC1C)CC1CC(CC=C(C)C(OC3CC(OC)C(OC4CC(OC)C(O)C(C)O4)C(C)O3)C(C)C=CC=C3COC4C(O)C(C)C=C(C(=O)O1)C34O)O2 (centres unmarked)	Yes
CCCC(=O)OC1C(C)OC(OC2C(C)OC(OC3C(CC=O)CC(C)C(O)C=CC=CCC(C)OC(=O)CC(OC(C)=O)C3OC)C(O)C2N(C)C)CC1(C)O (centres unmarked)	Yes
COC1C(O)CC(=O)OC(C)CC=CC=CC(O)C(C)CC(CC=O)C1OC1OC(C)C(OC2CC(C)(O)C(OC(=O)CC(C)C)C(C)O2)C(N(C)C)C1O (centres unmarked)	Yes
C=C1c2c(Cl)ccc(O)c2C(=O)C2=C(O)[C@]3(O)C(=O)C(C(N)=O)=C(O)[C@@H](N(C)C)[C@@H]3[C@@H](O)[C@H]12	No
COc1c(O)c(C)c(C)c(O)c1OC	No
COc1cc2c(oc(=O)c3cc(C)cc(OC)c32)c2c([C@H]3O[C@@H]([C@@H](C)O)[C@H](O)[C@H]3O)ccc(O)c12	No
O=c1cc(O)c2nccc3c4ccccc4n1c23	Yes
CCCCCC(=O)OC1C(C)OC(OC2C(C)OC(OC3C(CC=O)CC(C)C(O)C=CC=CCC(C)OC(=O)CC(O)C3OC)C(O)C2N(C)C)CC1(C)O (centres unmarked)	Yes
Cc1c2ccocc-2oc1=O	No
CC(=O)OC1CCC2(C)C(CCC3C2CC(=O)C2(C)C3CC3OC4(CCC(C)CO4)C(C)C32)C1 (centres unmarked)	No
CCC(C=CC1OC(=O)C=CC1C)=CC(C)CC=CC(C)=CC(C)C(=O)C(C)C(O)C(C)CC(C)=CC(=O)O (centres unmarked)	Yes

====

- System: P. falciparum 3D7 parasites
- assay comment: P. falciparum growth inhibition assay, 2-cycle (120 h treatment), delayed-death screen and dose-response
- Type: cell-based, Plasmodium falciparum
- test conditions: Plasmodium falciparum, 3D7; P. falciparum, 120 h, screen at 2 μg/mL, replicate 1; read-out: Pf_120h_%Growth_Rep1
Measured activity at 2 µg/mL, listed per entry for reference.

molecule	activity at 2 µg/mL [%]
COC(=O)C1=C2Nc3ccccc3[C@@]23CCN2C[C@]4(C[C@@H]5C[C@]67CCC[C@H]6CCN6CC[C@@]8(c9cccc(OC)c9N(C4)[C@@]58O)[C@@H]67)[C@@H]4OCC[C@]4(C1)[C@H]23	166
C=CC(C)(C)[C@@]12C[C@H]3C(=O)N[C@H](CC(C)C)C(=O)N3[C@H]1N(C(C)=O)c1ccccc12	152
COc1c(OC/C=C(\C)CCC=C(C)C)ccc2ccc(=O)oc12	60.9
CC[C@H]1OC(=O)[C@H](C)C(=O)[C@H](C)[C@@H](O[C@@H]2O[C@H](C)C[C@H](N(C)C)[C@H]2O)[C@](C)(OC)C[C@@H](C)C(=O)[C@H](C)[C@H]2N(CCCCn3cnc(-c4cccnc4)c3)C(=O)O[C@]12C	50.8
Nc1ncnc2c1ncn2[C@@H]1O[C@H](CO)C[C@H]1O [Cordycepin]	24.5
COc1ccc2c3c4n(c2c1)[C@H](C=C(C)C)OOC(C)(C)C[C@@H]4N1C(=O)[C@@H]2CCCN2C(=O)[C@]1(O)[C@H]3O	144
